Exercise: state measured pKd for each of the binders provided.
tgt: GRID2IP_2, A4D2P6
Sequence (A4D2P6 272-370): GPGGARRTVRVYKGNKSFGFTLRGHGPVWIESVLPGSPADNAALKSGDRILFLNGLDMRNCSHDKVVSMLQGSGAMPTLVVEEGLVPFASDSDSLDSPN
test-summary: holdup assay
Set-up: key: below the threshold = too weak to quantify, mostly under pKd 3.1 to 4
experimental-context: plain residues with an end cap or a label only (N-terminal biotin on a linker: ado-ado)
I'd appreciate a reply containing only the number, no unit.

Query: # get_value(readout='pKd', item= KKMLQRRTLL [OR8G1, Q15617] )
Response: 5.09

Query: # get_value(readout='pKd', item= RFQQRMQTHV [KIRREL1, Q96J84] )
Response: 3.96

Query: # get_value(readout='pKd', item= PTPDLPQTRV [KLHDC7A, Q5VTJ3] )
Response: 4.26

Query: # get_value(readout='pKd', item= ARSAAASNYV [CLDN4, O14493] )
Response: 3.56

Query: # get_value(readout='pKd', item= LKDDELKTKL [SLCO1A2, P46721] )
Response: 4.55

Query: # get_value(readout='pKd', item= DGVNEKVSCV [HTR2A, P28223] )
Response: 4.54

Query: # get_value(readout='pKd', item= LESTTVGTSV [KARS1, Q15046] )
Response: 4.06

Query: # get_value(readout='pKd', item= GIKKITSTAL [RPS6KA3, P51812] )
Response: 4.74

Query: # get_value(readout='pKd', item= APIAGFSSFV [SDK2, Q58EX2] )
Response: 4.61

Query: # get_value(readout='pKd', item= VLYPREGTEV [FOXI1, Q12951] )
Response: 4.11

Origin of the recorded values: paper PMC9482650
